Assay: IUF_NPC2a_radial_glia_migration_120hr: Leibniz Research Institute for Environmental Medicine (IUF) 120-hour Neural Progenitor Cell Migration Assay for Radial Glia Migration (NPC2a) (AID 2284298)
Experimental: IUF_NPC2-5 is a cell-based, multiplexed assay that uses hNPC, a human primary neural progenitor cells, with measurements taken at 72 or 120 hours after chemical dosing in a 96-well plate. […] The processes radial glia migration, neuronal and oligodendrocyte migration as well as neuronal differentiation, neuronal morphology and oligodendrocyte differentiation are studied using automated phase contrast imaging and automated fluorescence imaging in combination with high content image analysis. […]
Activity calls are given as the source filed them. How the source made its calls: active means hit-call score of the fitted dose curve at least 0.9, where 1 is the maximum; inactive means score below 0.9.
Classes used: class 1 (active), class 0 (inactive)

>  <compound>
CCOP(=O)(NC(C)C)Oc1ccc(SC)c(C)c1 (centres undefined)

>  <cat>
class 1

$$$$
>  <compound>
CCOC(=O)CC(SP(=O)(OC)OC)C(=O)OCC (centres undefined)

>  <cat>
class 0

$$$$
>  <compound>
CCOP(=S)(OCC)Oc1cc(C)nc(C(C)C)n1

>  <cat>
class 0

$$$$
>  <compound>
CCOP(=O)(OCC)Oc1cc(C)nc(C(C)C)n1

>  <cat>
class 0

$$$$

---

system: DIO2 (gene 1734); assay: CCTE_GLTED_hDIO2: CCTE's human Deiodinase 2 (DIO2) Inhibition Assay, Great Lakes Toxicology and Ecology Division (GLTED) Lab (AID 2284050)
Calls of active or inactive are those of the source. The calls were made as follows: active = hit-call score of the fitted dose curve at least 0.9, where 1 is the maximum; inconclusive = response in the unintended direction; inactive = score below 0.9.
Possible outcomes: y = active, n = inactive

>  <molecule>
C#CCC1=C(C)C(OC(=O)C2C(C=C(C)C)C2(C)C)CC1=O (stereo not given)

>  <cat>
y

$$$$
>  <molecule>
O=[N+]([O-])c1cc(C(F)(F)F)c(Cl)c([N+](=O)[O-])c1Nc1ncc(C(F)(F)F)cc1Cl

>  <cat>
y

$$$$
>  <molecule>
CC(C)=CC1C(C(=O)OCN2C(=O)C3=C(CCCC3)C2=O)C1(C)C (stereo not given)

>  <cat>
y

$$$$
>  <molecule>
C=C(C)[C@H]1Cc2c(ccc3c2O[C@@H]2COc4cc(OC)c(OC)cc4[C@@H]2C3=O)O1

>  <cat>
n

$$$$
>  <molecule>
CCNc1nc(Cl)nc(NC(C)(C)C#N)n1

>  <cat>
n

$$$$

---

assay: APR_HepG2_MitoticArrest_72hr: Apredica 72-hour HepG2 Assay for Mitotic Arrest (AID 2282918); details: high-content imaging, actives raise or lower the signal
Active and inactive are the calls of the source. How the source made its calls: active means hit-call score of the fitted dose curve at least 0.9, where 1 is the maximum; inactive means score below 0.9.

>  <compound>
CCOP(=S)(OCC)Oc1ccc([N+](=O)[O-])cc1

>  <outcome>
inactive

$$$$
>  <compound>
CCOP(=S)(Oc1cnc(C(C)(C)C)nc1)OC(C)C (configuration not stated)

>  <outcome>
inactive

$$$$
>  <compound>
CCCCOC(=O)[C@@H](C)Oc1ccc(Oc2ccc(C#N)cc2F)cc1

>  <outcome>
inactive

$$$$
>  <compound>
CSC1=N[C@@](C)(c2ccccc2)C(=O)N1Nc1ccccc1

>  <outcome>
inactive

$$$$
>  <compound>
CCNc1nc(Cl)nc(NC(C)(C)C#N)n1

>  <outcome>
inactive

$$$$
>  <compound>
CNC(=O)Oc1cccc2c1OC(C)(C)O2

>  <outcome>
inactive

$$$$
>  <compound>
CCCCOC(=O)c1ccccc1C(=O)O

>  <outcome>
inactive

$$$$

---

assay: TOX21_p53_BLA_p3_viability: Viability Assessment in the Tox21 HCT-116 p53 Agonism Beta-lactamase Assay, Phase 3 (AID 2283593);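 further: cells exposed to compound for 16 h before reading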
Records with an inconclusive call do not appear. Active and inactive are the calls of the source. The calls were made as follows: active = hit-call score of the fitted dose curve at least 0.9, where 1 is the maximum; inconclusive = response in the unintended direction; inactive = score below 0.9.
Outcomes: active, inactive

>  <compound>
CCC(CC)Nc1c([N+](=O)[O-])cc(C)c(C)c1[N+](=O)[O-]

>  <cat>
inactive

$$$$
>  <compound>
FC(F)C(F)(F)OCC(Cn1cncn1)c1ccc(Cl)cc1Cl (configuration not stated)

>  <cat>
inactive

$$$$
>  <compound>
CC(C)N(C(=O)SCC(Cl)=C(Cl)Cl)C(C)C

>  <cat>
inactive

$$$$
>  <compound>
CCCCN(CC)c1c([N+](=O)[O-])cc(C(F)(F)F)cc1[N+](=O)[O-]

>  <cat>
inactive

$$$$
>  <compound>
CC[C@H](C)[C@H]1O[C@]2(C=C[C@@H]1C)C[C@@H]1C[C@@H](C/C=C(\C)[C@@H](O[C@H]3C[C@H](OC)[C@@H](O[C@H]4C[C@H](OC)[C@@H](NC)[C@H](C)O4)[C@H](C)O3)[C@@H](C)/C=C/C=C3\CO[C@@H]4[C@H](O)C(C)=C[C@@H](C(=O)O1)[C@]34O)O2

>  <cat>
active

$$$$
>  <compound>
CC1(C(=O)Nc2ccc(O)c(Cl)c2Cl)CCCCC1

>  <cat>
inactive

$$$$
>  <compound>
CCc1cccc(C)c1N(C(=O)CCl)C(C)COC (configuration not stated)

>  <cat>
inactive

$$$$
>  <compound>
CCOC(=O)CC(SP(=O)(OC)OC)C(=O)OCC (configuration not stated)

>  <cat>
inactive

$$$$
>  <compound>
CSC1=N[C@@](C)(c2ccccc2)C(=O)N1Nc1ccccc1

>  <cat>
inactive

$$$$
>  <compound>
CCOP(=O)(NC(C)C)Oc1ccc(SC)c(C)c1 (configuration not stated)

>  <cat>
inactive

$$$$
>  <compound>
COP(=O)(NC(C)=O)SC (configuration not stated)

>  <cat>
inactive

$$$$
>  <compound>
CCOC(=O)COc1cc(-c2nn(C)c(OC(F)F)c2Cl)c(F)cc1Cl

>  <cat>
inactive

$$$$
>  <compound>
C#CC(C)(C)NC(=O)c1cc(Cl)cc(Cl)c1

>  <cat>
inactive

$$$$
>  <compound>
C[Si](Cn1cncn1)(c1ccc(F)cc1)c1ccc(F)cc1

>  <cat>
inactive

$$$$
>  <compound>
CC(=NC#N)N(C)Cc1ccc(Cl)nc1

>  <cat>
inactive

$$$$
>  <compound>
CSc1nnc(C(C)(C)C)c(=O)n1N

>  <cat>
inactive

$$$$
>  <compound>
CCOP(=O)(OCC)Oc1cc(C)nc(C(C)C)n1

>  <cat>
inactive

$$$$
>  <compound>
CCOP(=S)(OCC)OC(Cl)C(Cl)(Cl)Cl (configuration not stated)

>  <cat>
inactive

$$$$
>  <compound>
COc1cccc(C(=O)NN(C(=O)c2cc(C)cc(C)c2)C(C)(C)C)c1C

>  <cat>
inactive

$$$$
>  <compound>
Nc1nc(N)nc(NC2CC2)n1

>  <cat>
inactive

$$$$
>  <compound>
CCNc1nc(Cl)nc(NC(C)(C)C#N)n1

>  <cat>
inactive

$$$$
>  <compound>
CCOP(=S)(OCC)Oc1ccc2c(C)c(Cl)c(=O)oc2c1

>  <cat>
inactive

$$$$
